# System: UniProt P32245
# Protocol: Antagonist activity against MC4R by cAMP functional assay
pIC50: −log10 of the molar value.
molecules and their reported pIC50
Assay readout: pIC50

CCN(CC)CCCC(C)N=C(N)NC(=O)c1cccc(F)c1CCc1cc(Br)ccc1Cl (stereo unspecified) : 6.18
COc1ccc(Br)cc1CCc1c(F)cccc1C(=O)/N=C(\N)NCCCNC1CCCCC1 : 5.24
COc1ccc(Br)cc1CCc1c(F)cccc1C(=O)/N=C(\N)NCCN1CCCC1 : 5.35
CCN(CC)CCCC(C)N=C(N)NC(=O)c1cccc(F)c1CCc1cc(OC)cc(OC)c1 (stereo unspecified) : 6.77
COc1ccc(Br)cc1CCc1c(F)cccc1C(=O)/N=C(\N)NCCCCN(C)Cc1cccc2ccccc12 : 5.92

---

Measured pIC50 accompanies every entry in the list below.
# System: Melanocortin receptor 4 (Homo sapiens)
# Sequence (P32245 whole entry): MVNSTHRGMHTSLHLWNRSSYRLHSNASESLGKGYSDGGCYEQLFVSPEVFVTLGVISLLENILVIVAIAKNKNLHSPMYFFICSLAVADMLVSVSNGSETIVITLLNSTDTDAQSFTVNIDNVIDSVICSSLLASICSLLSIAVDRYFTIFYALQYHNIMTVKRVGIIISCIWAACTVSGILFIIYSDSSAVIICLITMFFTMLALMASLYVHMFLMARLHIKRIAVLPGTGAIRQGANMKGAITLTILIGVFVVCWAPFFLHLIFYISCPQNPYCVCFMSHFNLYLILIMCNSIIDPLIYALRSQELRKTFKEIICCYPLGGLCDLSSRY
# Protocol: Antagonist activity against MC4R by cAMP functional assay
pIC50: −log10 of the molar value.
Assay readout: pIC50

CCN(CC)CCCC(C)N=C(N)NC(=O)c1cccc(F)c1OCc1cc(Br)ccc1OC (configuration not stated) : 6.28
COc1ccc(Br)cc1CCc1c(F)cccc1C(=O)NC(N)=NCCCN1CCN(C)CC1 : 6.17
CCN(CC)CCCC(C)N=C(N)NC(=O)c1ccsc1CCc1cc(Br)ccc1OC (configuration not stated) : 6.59
CCN(CC)CCCC(C)/N=C(/N)NC(=O)c1cccc(F)c1CCc1cccc2ccccc12 (configuration not stated) : 5.82
COc1ccc(Br)cc1CCc1c(F)cccc1C(=O)NC(N)=NCC1CCNCC1 : 7.51
CCN1CCC(C/N=C(/N)NC(=O)c2cccc(F)c2CCc2cc(Br)ccc2OC)CC1 : 7.01
CCN(CC)CCCC(C)N=C(N)NC(=O)c1cccc(Cl)c1CCc1cc(Br)ccc1OC (configuration not stated) : 6.59

Every entry's value here was drawn from ChEMBL document CHEMBL1146974.
